- experimental_system: Dual specificity tyrosine-phosphorylation-regulated kinase 1A (Homo sapiens, UniProt Q13627)
measure: IC50 (nM)

(A) CC(C)C[C@H](N)COc1cncc(-c2ccc3[nH]nc(C#Cc4ccsc4)c3c2)c1
(B) Cc1[nH]nc2ccc(-c3cncc(OC[C@@H](N)CC(C)C)c3)cc12
Could you tell me which of these two has the smaller IC50 figure? First: A Second: B Answer with the label corresponding to your selection. A
(A: 21.7 nM, B: 37.2 nM)
